B1: Azoarcus group I ribozyme (parent)
chain: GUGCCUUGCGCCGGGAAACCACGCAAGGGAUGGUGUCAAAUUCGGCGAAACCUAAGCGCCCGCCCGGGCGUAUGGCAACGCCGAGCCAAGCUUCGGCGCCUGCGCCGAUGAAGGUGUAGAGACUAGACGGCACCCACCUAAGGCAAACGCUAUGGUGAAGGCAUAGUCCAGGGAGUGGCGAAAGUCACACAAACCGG

# Variants of: B1
# assay_method_text: reverse-splicing fitness (ratio to wild type); higher = more active; in vitro selection; Mg2+ level not given
# reverse-splicing fitness per record follows

Recorded reverse-splicing fitness, per entry:
Ask | Which reverse-splicing fitness value is on record for C82U A111G A145C C169A ?
Reply | 0.00618

Ask | How about A111C A120C C150U U176C ?
Reply | 0.153

Ask | How about C82A A120U A145U C150G C169U U176A ?
Reply | 0.0025

Ask | How about C82G A111U A120G A145U C150G C169A ?
Reply | 0.00944

Ask | How about A111U A145G C150A U176G ?
Reply | 0.0951

More entries:
Ask | Which reverse-splicing fitness value is on record for C82G A145G C150U U176G ?
Reply | 0.106

Ask | How about C82A A111G A120G A145C C150A C169U U176A ?
Reply | 0.0207

Ask | How about A120C A145G C150U C169G U176A ?
Reply | 0.014

Ask | How about C82U A111U A120U A145U C150A C169G U176A ?
Reply | 0.00311

Ask | How about C82A A120G A145G C150U C169U U176C ?
Reply | 0.0172

Ask | How about C82A A120U A145G C169A U176A ?
Reply | 0.00307

Ask | How about C82G A111G A145C C150U C169A U176G ?
Reply | 0.00694

Ask | How about C82A A120U A145C C150U C169U ?
Reply | 0.00313

Ask | How about C82U A111G A120C A145U C150G ?
Reply | 0.00964

Ask | How about C82G A111C A120U C150A U176C ?
Reply | 0.00693

Ask | How about C82G A111G A120C A145G C150G U176C ?
Reply | 0.011

Ask | How about C82U A145U C150U C169A ?
Reply | 0.00939

Ask | How about A111G A145U C150U C169U U176C ?
Reply | 0.056

Ask | How about A111G A120C C150A C169G U176A ?
Reply | 0.0214

Ask | How about C82G A111G A145G C150U C169U U176C ?
Reply | 0.0151

Ask | How about C82A A111U A120U A145C C150A U176G ?
Reply | 0.00255

Ask | How about C82G A120G A145G C150A U176A ?
Reply | 0.011

Ask | How about C82G A111G A145U C150A C169A U176G ?
Reply | 0.00645
